Sourced from patent US20220073621A1

- ASSAY_TARGET: T1, hPD-L1-His (human, UniProt Q9NZQ7 19-238)
- T1 construct: Bought protein; also called hPD-L1-His (manufactured by Edison); not shown: His tag
- T1 sequence (Q9NZQ7 19-238 limits assumed): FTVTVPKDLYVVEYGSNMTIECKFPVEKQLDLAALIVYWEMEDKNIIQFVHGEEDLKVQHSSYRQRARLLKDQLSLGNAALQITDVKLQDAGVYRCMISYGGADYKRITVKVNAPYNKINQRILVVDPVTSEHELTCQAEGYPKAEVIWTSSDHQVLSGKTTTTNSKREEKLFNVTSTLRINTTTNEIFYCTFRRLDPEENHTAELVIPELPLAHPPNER
- MEASUREMENT_PROTOCOL: SPR (Biacore T200), antibody on Protein A chip, hPD-L1-His injected, 1:1 fit
Each entry falls into one class according to its Kd; the ranges are zone 1 (below 0.8 nM), zone 2 (0.8 nM to below 8 nM), zone 3 (8 nM or more)

{"BINDER": "6A11-H4K4-IgG1 (antibody, V domains shown) VH: EVQLVESGGGLVQPGGSRRLSCAASGFTFSSFGMHWVRQAPGKGLEWVAYISSGSNTIYYADTVKGRFTISRDNPKNSLYLQMNSLRAEDTAIYYCTRNGYDGWYAMDYWGQGTTVTVSS VL: EIVLTQSPATLSASPGERATLSCSASSSVSYIHWFQQKPGQSPRRWIYDTSKLASGIPARFSGSGSGTSYTLTISSMEPEDAATYYCQQWSTNPFTFGQGTKLEIKR", "CAT": "zone 3"}
{"BINDER": "33-10C9-mHvKv-IgG1-N297A (antibody, V domains shown) VH: QVQLQQPGAELVKPGSSVKLSCKASGYTFTTYYIYWVKQRPGQGLEWIGGINPYNGGTSFNEKFESKATLTVDISSSTAFMQLSSLTSEDSAVYYCTRDGNYVDYWGQGTTLTVSS VL: QIVLTQSPAIMSASPGEKVTITCSASSTVSYVHWLQQKPDTSPKLWIYSTSNLASGVPARFSGSGSGTSYSLTISRMEAEDAATYYCQQRSSSPPTFGSGTKLEIK", "CAT": "zone 2"}
{"BINDER": "3F2-H3K2-IgG1 (antibody, V domains shown) VH: DVQLQESGPGLVKPSETLSLTCTVSGYSITSGYNWHWIRQFPGNGLEWMGYIHHSSITNYNPSLKSRITISRDTSKNQFSLKLSSVTAEDTATFYCAREGYDYDWFAYWGQGTLVTVSS VL: DIVLTQSPDFQSVTPKEKVTLSCRASQSISNNLHWYQQKPDESPKLLIKYASQSISGIPSRFSGSGSGTDFTLTINSVEAEDFAMYFCQQSKSWPFTFGQGTRLEIK", "CAT": "zone 1"}
{"BINDER": "7E4-H2K1-IgG1 (antibody, V domains shown) VH: QVQLVQSGAEVKKPGASVKVSCKASGFKFTDYAIHWVRQAPGKSLEWMGVISIYYGEASYNQKFKDRVTLTVDTSASTAYMELSSLRSEDTAVYYCAREDYYGSSSYFDYWGQGTLVTVSS VL: DNQLTQSPSFLSASVGDRVTITCSASSSVSSSYLHWYQQKPGAAPKPLIHRTSNLASGVPSRFSGSGSGTEFTLTISSLQPEDFATYYCQQWSGYPYTFGGGTKLEIK", "CAT": "zone 3"}
{"BINDER": "08-3F2-mHvKv-IgG1 (antibody, V domains shown) VH: DVQLQESGPDLVKPSQTLSLTCTVTGYSITSGYNWHWIRQFPGNKLEWMGYIHHSSITNYNPSLKSRISITRDTSKNQFFLQLSSVTTEDTATFYCAREGYDYDWFAYWGQGTLVTVSA VL: DIVLAQSPATLSVTPGDSVSLSCRASQSISNNLHWYQQKSHESPRLLIKYASQSISGIPSRFSGSGSGTDFTLSINSVETEDFGMYFCQQSKSWPFTFGSGTRLEIK", "CAT": "zone 1"}
{"BINDER": "07-6A11-mHvKv-IgG1 (antibody, V domains shown) VH: DVQLVESGGGLVQPGGSRKLSCAASGFTFSSFGMHWVRQAPEKGLEWVAYISSGSNTIYYADTVKGRFTISRDNPKNTLFLQMTSLRSEDTAIYYCTRNGYDGWYAMDYWGQGTSVTVSS VL: QIVLTQSPAIMSASPGEKVTMTCSASSSVSYIHWFQQKSGTSPKRWIYDTSKLASGVPARFSGRGSGTSYSLTISSMEAEDAATYYCQQWSTNPFTFGSGTKLEIK", "CAT": "zone 2"}
{"BINDER": "7E4-H2K2-IgG1 (antibody, V domains shown) VH: QVQLVQSGAEVKKPGASVKVSCKASGFKFTDYAIHWVRQAPGKSLEWMGVISIYYGEASYNQKFKDRVTLTVDTSASTAYMELSSLRSEDTAVYYCAREDYYGSSSYFDYWGQGTLVTVSS VL: DNVLTQSPSFLSASVGDRVTMTCSASSSVSSSYLHWYQQKPGASPKPLIHRTSNLASGVPSRFSGSGSGTEFTLTISSLQPEDFATYYCQQWSGYPYTFGGGTKLEIK", "CAT": "zone 3"}
{"BINDER": "3F2-H2K3-IgG1 (antibody, V domains shown) VH: DVQLQESGPGLVKPSETLSLTCTVSGYSITSGYNWHWIRQFPGNGLEWMGYIHHSSITNYNPSLKSRITISRDTSKNQFSLKLSSVTAADTATFYCAREGYDYDWFAYWGQGTLVTVSS VL: DIVLTQSPDTQSVTPKESVTLSCRASQSISNNLHWYQQKSHESPKLLIKYASQSISGIPSRFSGSGSGTDFTLTINSVEAEDFAMYFCQQSKSWPFTFGQGTRLEIK", "CAT": "zone 1"}
